These data points were gathered from ChEMBL document CHEMBL1135664.

- Tested System: Substance-K receptor (Oryctolagus cuniculus, UniProt P79218)
- Sequence (P79218 whole entry): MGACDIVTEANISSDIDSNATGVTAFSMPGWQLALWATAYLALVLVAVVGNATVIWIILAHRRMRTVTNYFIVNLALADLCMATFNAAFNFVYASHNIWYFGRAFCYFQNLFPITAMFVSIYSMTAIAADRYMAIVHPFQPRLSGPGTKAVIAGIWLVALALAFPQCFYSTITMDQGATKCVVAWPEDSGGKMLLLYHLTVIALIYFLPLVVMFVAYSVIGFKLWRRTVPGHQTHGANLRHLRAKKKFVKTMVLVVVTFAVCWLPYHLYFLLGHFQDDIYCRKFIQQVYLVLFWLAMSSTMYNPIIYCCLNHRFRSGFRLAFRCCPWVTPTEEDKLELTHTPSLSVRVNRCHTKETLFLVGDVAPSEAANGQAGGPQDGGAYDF
- Test Details: Functional potency against Tachykinin receptor 2 (NK2) in rabbit pulmonary artery assay
- Experimental Setup: read-out: pA2 (converted)
Test Readout: Kb (nM)

Sample answers from the record:
Compound | Kb / nM
CC(=O)N1CCN(C2CN(CCC3(c4ccc(Cl)c(Cl)c4)CCC(=O)N(Cc4ccccc4)C3)C2)CC1 (configuration not stated) | 1.58
Cc1ccccc1CN1CC(CCN2CC(N3CCOCC3)C2)(c2ccc(Cl)c(Cl)c2)CCC1=O (configuration not stated) | 0.501
O=C1CCC(CCN2CC(N3CCOCC3)C2)(c2ccc(Cl)c(Cl)c2)CN1CC1CC1 (configuration not stated) | 7.94

I = CN(C)S(=O)(=O)N1CCN(C2CN(CCC3(c4ccc(Cl)c(Cl)c4)CCC(=O)N(CC4CC4)C3)C2)CC1 (configuration not stated)
II = O=C1CCC(CCN2CC(N3CCOCC3)C2)(c2ccc(Cl)c(Cl)c2)CN1Cc1ccncc1 (configuration not stated)
III = Cc1cccc(CN2CC(CCN3CC(N4CCOCC4)C3)(c3ccc(Cl)c(Cl)c3)CCC2=O)c1 (configuration not stated)
Sort by Kb, descending. Your answer should be the labels, listed in the requested order.
II, I, III
